growth by entry:
System: KM12 colon
testDescription: NCI-60 one-dose screen, 48 h (100 = growth as untreated, 0 = no growth, -100 = all killed)
experimentalContext: 10 µM unless noted
The panel holds about 83,000 compounds, 20% with a hit somewhere; the sample as a whole holds those more often. Activity calls are given as the source filed them. Rule for the calls: active = growth percent below 10; inactive = the rest.

Some entries whose results are on file:
compound | dataValue
Clc1ncnc2nc[nH]c12 | 105% (inactive)
CCN1CCCC(N2c3ccccc3Sc3ccccc32)C1 (configuration not stated) | 102% (inactive)
CC(C)N(C(=O)c1ccccc1)C(C)C | 111% (inactive)
CCOC(=O)CSCCC#N | 105% (inactive)
Nc1nc2nnc(-c3ccccc3)c(-c3ccccc3)n2n1 | 132% (inactive)
O=C(NCc1ccco1)Nc1cccc2c(NC(=O)NCc3ccco3)cccc12 | 61.1% [100 µM] (inactive)

Now for another entry.
Find the recorded growth belonging to CC1CCC(C)(C)c2ccccc21 (configuration not stated) and report it.
106% (inactive)
